biological target: T1, Soluble heterodimeric CD3 protein (hCD3-epsilon/hCD3-delta) with either a human Fc tag (hFcΔAdp/hFc) or a … (human, UniProt P07766 23-126; P04234 22-105); experiment: SPR Biacore 25C antibody-capture
T1 construct: also called hCD3ε/δ; not shown: Fc tag: human (hFcΔAdp/hFc)
T1 sequence (P07766 23-126 limits assumed, stated change not applied, chain 1 of 2): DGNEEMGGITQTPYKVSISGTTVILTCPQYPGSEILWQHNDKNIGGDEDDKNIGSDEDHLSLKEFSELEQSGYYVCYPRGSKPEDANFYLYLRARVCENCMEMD
T1 sequence (P04234 22-105 limits assumed, stated change not applied, chain 2 of 2): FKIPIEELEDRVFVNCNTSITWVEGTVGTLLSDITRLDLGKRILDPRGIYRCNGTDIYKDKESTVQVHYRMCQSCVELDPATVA
Item-by-item account of kon
value-type: kon (M⁻¹ s⁻¹)

binder | value-type | val
H1H5771P (antibody, human IgG1, V domains shown, H1H: human IgG1 Fc; divalent) VH: EVQLVESGGGLVQPGRSLRLSCAASGFSFDNYAMHWVRQAPGQGLEWVSGISWNSGSRDYADSVKGRFTISRDNARNSLFLQMNSLSNEDTAMYYCAKDKSGYGSYFYGMDVWGQGTTVTVSS VL: EIVLTQSPGTLSLSPGDRATLSCRASQSIRNIYLAWYQQKPGQAPRLLIHGASTRATGIPDRFSGSGSGTDFTLTISRLEPEDFAVYYCQQRVSLPYTFGQGTKLEIK | kon | 30000
H1H5790B (antibody, human IgG1, V domains shown, H1H: human IgG1 Fc; divalent) VH: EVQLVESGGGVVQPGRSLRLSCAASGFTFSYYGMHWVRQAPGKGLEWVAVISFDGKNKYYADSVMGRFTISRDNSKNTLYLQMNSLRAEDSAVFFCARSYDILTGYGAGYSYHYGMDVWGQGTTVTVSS VL: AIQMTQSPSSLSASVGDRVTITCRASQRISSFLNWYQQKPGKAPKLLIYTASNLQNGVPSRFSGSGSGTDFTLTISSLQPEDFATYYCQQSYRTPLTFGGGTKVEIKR | kon | 18200
H1H5778P (antibody, human IgG1, V domains shown, H1H: human IgG1 Fc; divalent) VH: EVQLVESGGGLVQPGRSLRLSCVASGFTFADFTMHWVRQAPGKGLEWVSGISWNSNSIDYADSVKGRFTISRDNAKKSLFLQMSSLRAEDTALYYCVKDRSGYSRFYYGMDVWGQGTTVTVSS VL: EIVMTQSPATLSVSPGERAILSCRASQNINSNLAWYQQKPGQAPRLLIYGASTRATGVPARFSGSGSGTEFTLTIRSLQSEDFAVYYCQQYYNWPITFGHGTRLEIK | kon | 5520
H1H5793B (antibody, human IgG1, V domains shown, H1H: human IgG1 Fc; divalent) VH: QVQLVQSGTEVKKPGASMKVSCKASGYTFTGYYIHWVRQAPGQGLEWMGWINPNSDVTKYAQKFQGRVTLTRDTSISAAYIDLSRLRSDDTAIYYCARMGDGAVFDYWGQGTLVTVSS VL: DIQLTQSPSSLSASVGDRVTITCRASQRISSYLNWYQQKPGKAPKVLISVASSLQSGVPSRFSGSGFGTDFTLTISSLQPEDSASYYCQQSYNTPLTFGGGTKLEIKR | kon | 8540
H1H5772S (antibody, V domains shown, H1H: human IgG1 Fc; divalent; also called H1H5772P) VH: QVQLVESGGGLVQPGRSLRLSCAASGFSFDDYAMHWVRQAPGQGLEWVSGISWNGGSRDYADSVKGRFTISRDNARNSLFLQMNSLFTEDTALYYCAKDKSGYGSYFYGMDVWGQGTTVTVSS VL: EIVLTQSPGILSLSPGDRATLSCRASQSIRNIYLAWYQQKPGQAPRLLIHGASTRATGIPDRFSGSGSGTDFTLTISRLEPEDFAVYYCQQRVSSPYTFGQGTKLEIK | kon | 15600
